- STUDY SYSTEM: Factor X, P00742
- Sequence (P00742 whole entry, looked up): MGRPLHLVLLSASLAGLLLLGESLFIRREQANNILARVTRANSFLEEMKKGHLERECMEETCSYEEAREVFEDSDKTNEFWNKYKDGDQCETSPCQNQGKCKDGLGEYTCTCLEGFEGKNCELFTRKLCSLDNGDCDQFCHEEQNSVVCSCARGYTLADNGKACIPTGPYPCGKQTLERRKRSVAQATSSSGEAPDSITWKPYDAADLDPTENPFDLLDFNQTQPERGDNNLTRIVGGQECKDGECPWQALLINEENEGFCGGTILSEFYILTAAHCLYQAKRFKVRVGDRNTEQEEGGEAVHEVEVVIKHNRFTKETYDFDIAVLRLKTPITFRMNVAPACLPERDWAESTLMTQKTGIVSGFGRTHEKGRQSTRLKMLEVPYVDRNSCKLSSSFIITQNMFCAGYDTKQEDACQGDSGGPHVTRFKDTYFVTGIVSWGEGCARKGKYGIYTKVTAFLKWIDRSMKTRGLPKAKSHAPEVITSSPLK
OBSERVATION TYPE: kcat/KM (M⁻¹ s⁻¹)
One number for each entry, in M⁻¹ s⁻¹.

Example entries begin here.
FIXa R318Y/R338E/R403E/E410N/T412V (protein) chain 1: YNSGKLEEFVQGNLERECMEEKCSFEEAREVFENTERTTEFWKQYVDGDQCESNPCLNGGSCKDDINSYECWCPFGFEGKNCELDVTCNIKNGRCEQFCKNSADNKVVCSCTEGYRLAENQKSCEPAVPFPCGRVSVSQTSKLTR chain 2: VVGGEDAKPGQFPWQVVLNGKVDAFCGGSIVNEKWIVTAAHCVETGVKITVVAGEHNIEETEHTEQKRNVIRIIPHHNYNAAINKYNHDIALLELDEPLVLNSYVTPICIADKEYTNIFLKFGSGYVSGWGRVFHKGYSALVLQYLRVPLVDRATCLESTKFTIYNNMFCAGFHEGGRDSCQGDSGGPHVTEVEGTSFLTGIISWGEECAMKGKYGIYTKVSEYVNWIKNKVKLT; 1.6e+08
FIXa-Y155F/K247N/N249S/R338E/R403E/E410N (protein) chain 1: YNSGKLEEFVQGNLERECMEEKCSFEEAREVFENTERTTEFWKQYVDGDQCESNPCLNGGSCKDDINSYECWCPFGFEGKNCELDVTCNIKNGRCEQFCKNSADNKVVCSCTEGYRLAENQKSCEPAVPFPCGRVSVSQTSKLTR chain 2: VVGGEDAKPGQFPWQVVLNGKVDAFCGGSIVNEKWIVTAAHCVETGVKITVVAGEHNIEETEHTEQNRSVIRIIPHHNYNAAINKYNHDIALLELDEPLVLNSYVTPICIADKEYTNIFLKFGSGYVSGWGRVFHKGRSALVLQYLRVPLVDRATCLESTKFTIYNNMFCAGFHEGGRDSCQGDSGGPHVTEVEGTSFLTGIISWGEECAMKGKYGIYTKVSEYVNWIKNKTKLT; 1.1e+08
FIXa-Y155F/I251S/R318Y/R338E/R403E/E410N (protein) chain 1: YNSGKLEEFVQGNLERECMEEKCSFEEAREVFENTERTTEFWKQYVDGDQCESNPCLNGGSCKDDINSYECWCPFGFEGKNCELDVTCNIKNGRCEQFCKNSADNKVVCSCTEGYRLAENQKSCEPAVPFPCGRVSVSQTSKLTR chain 2: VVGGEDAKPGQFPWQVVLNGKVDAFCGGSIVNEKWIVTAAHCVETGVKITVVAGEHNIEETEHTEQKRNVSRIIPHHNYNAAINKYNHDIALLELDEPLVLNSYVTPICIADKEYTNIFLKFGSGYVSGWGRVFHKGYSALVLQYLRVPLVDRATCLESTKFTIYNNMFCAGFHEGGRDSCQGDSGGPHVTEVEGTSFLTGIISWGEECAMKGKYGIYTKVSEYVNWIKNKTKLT; 1.7e+08

Batch lookup, kcat/KM per entry.
1. FIXa R318Y/R338E/E410N/T412V (protein) chain 1: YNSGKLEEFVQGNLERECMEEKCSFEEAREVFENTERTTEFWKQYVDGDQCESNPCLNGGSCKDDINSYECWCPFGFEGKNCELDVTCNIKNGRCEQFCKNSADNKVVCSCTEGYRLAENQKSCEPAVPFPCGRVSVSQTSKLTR chain 2: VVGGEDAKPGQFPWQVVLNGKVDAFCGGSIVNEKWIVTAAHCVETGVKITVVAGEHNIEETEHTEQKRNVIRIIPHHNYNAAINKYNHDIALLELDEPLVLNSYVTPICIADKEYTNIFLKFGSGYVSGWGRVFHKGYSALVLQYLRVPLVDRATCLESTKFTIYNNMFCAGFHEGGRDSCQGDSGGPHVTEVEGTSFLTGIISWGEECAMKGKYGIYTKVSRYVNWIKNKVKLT
2. FIXa-K247N/N249S/R318Y/R338E/T343R/R403E/E410N (protein) chain 1: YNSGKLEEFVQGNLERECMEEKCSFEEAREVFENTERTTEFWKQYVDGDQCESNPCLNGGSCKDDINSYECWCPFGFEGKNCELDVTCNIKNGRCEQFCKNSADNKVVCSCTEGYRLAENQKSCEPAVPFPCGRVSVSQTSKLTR chain 2: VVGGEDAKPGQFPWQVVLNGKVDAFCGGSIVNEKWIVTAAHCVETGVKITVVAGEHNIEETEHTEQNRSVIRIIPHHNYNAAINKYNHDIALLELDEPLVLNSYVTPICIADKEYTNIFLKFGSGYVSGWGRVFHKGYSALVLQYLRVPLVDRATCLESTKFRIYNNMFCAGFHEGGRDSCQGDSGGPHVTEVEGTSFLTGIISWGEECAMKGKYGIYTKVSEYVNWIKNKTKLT
3. FIXa-Y155F/K228N/I251S/R318Y/R338E/R403E/E410N (protein) chain 1: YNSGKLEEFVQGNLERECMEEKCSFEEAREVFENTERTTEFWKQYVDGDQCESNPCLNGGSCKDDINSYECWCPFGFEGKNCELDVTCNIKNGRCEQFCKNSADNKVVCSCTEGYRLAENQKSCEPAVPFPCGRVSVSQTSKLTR chain 2: VVGGEDAKPGQFPWQVVLNGKVDAFCGGSIVNEKWIVTAAHCVETGVNITVVAGEHNIEETEHTEQKRNVSRIIPHHNYNAAINKYNHDIALLELDEPLVLNSYVTPICIADKEYTNIFLKFGSGYVSGWGRVFHKGYSALVLQYLRVPLVDRATCLESTKFTIYNNMFCAGFHEGGRDSCQGDSGGPHVTEVEGTSFLTGIISWGEECAMKGKYGIYTKVSEYVNWIKNKTKLT
4. FIXa R318Y/R338E/R403E/E410N/T412A (protein) chain 1: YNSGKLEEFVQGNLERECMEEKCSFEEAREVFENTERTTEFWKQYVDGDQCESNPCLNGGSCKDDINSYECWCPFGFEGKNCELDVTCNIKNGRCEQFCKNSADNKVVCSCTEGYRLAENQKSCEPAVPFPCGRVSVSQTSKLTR chain 2: VVGGEDAKPGQFPWQVVLNGKVDAFCGGSIVNEKWIVTAAHCVETGVKITVVAGEHNIEETEHTEQKRNVIRIIPHHNYNAAINKYNHDIALLELDEPLVLNSYVTPICIADKEYTNIFLKFGSGYVSGWGRVFHKGYSALVLQYLRVPLVDRATCLESTKFTIYNNMFCAGFHEGGRDSCQGDSGGPHVTEVEGTSFLTGIISWGEECAMKGKYGIYTKVSEYVNWIKNKAKLT

Result:
["2.6e+08", "3.8e+08", "1.4e+08", "2.5e+08"]
